Attribute: growth
System: HOP-62 NSCLC
protocolSummary: NCI-60 one-dose screen, 48 h (100 = growth as untreated, 0 = no growth, -100 = all killed)
particulars: 10 µM
Experimental: Growth inhibition of the HOP-62 human Non-Small Cell Lung tumor cell line is measured as a screen for anti-cancer activity. Cells are grown in 96 well plates and exposed to the test compound for 48 hours. Compounds are tested at a single concentration, which is 10^-5 M for most compounds. The reported endpoint is percent growth (GI% or GIPRCNT), where numbers from 0 - 100% represent growth inhibition, and numbers from -100% - 0 represent cell death. […]
This is part of a sample that, as a whole, favours compounds with a hit. Of some 83,000 tested, about 20% had one in any assay. Calls of active or inactive are those of the source. Rule for the calls: active = growth percent below 10; inactive = the rest.

Here are 5 compounds together with their reported answers.
> print(dat)
                                   compound    reportedresult
1            O=C(Nc1cccc(F)c1)Nc1cccc(Cl)c1  99.6% (inactive)
2  CC1(C)CC(=O)c2c(nc3ccc(Cl)cc3c2-c2ccccc2)C1  92.1% (inactive)
3  C[C@@H]1C(=O)N(C[C@H](Cc2ccccc2)NC(=O)OCc2ccccc2)[C@]1(Cc1ccccc1)C(=O)OCc1ccccc1  70.9% (inactive)
4      Clc1ccc(-c2nc(-c3cccs3)cn3ccnc23)cc1  57.7% (inactive)
5  O=C(c1ccccc1)C(Nc1ccccc1)c1ccccc1 (stereo unspecified)  83.5% (inactive)

// next entry
Inquiry: Find the recorded growth belonging to CCN(CC)CCn1c(=N)n(CC(O)c2ccc(Cl)c(Cl)c2)c2ccccc21 (stereo unspecified) and report it.
Reply text: 85.3% (inactive)

---

Test system: OVCAR-4 ovarian
protocolSummary: NCI-60 one-dose screen, 48 h
particulars: 10 µM
This is part of a sample that, as a whole, favours compounds with a hit. Of some 83,000 tested, about 20% had one in any assay. Activity calls are given as the source filed them. Rule for the calls: active = growth percent below 10; inactive = the rest.
Select the matching outcome among T = active, F = inactive

> print(dat)
                                   compound  classassignment
1     O=C(CSc1nnc(-c2ccc(Cl)cc2)o1)c1ccccc1                F
2  COc1cc(OC)cc(-c2ccc(-c3ccc(C(=N)N)cn3)o2)c1                F
3           Cc1ccc2c3c(cccc13)-c1ccccc1C2=O                F
4  N#C/C(=C\N1C(=O)/C(=C/c2cccc([N+](=O)[O-])c2)SC1=S)c1nc2ccccc2s1                F

Inquiry: I'd appreciate the recorded outcome for "COc1ccc(-c2ccccc2)cc1C(=O)c1ccc(-c2ccccc2)cc1" from this test.
Reply text: F

Inquiry: I'd appreciate the recorded outcome for "CCOC(=O)c1sc(Nc2ncccn2)nc1-c1ccccn1" from this test.
Reply text: F

Inquiry: I'd appreciate the recorded outcome for "Cc1cc(OI)c(C(C)C)cc1-c1cc(C(C)C)c(OI)cc1C" from this test.
Reply text: F

Inquiry: I'd appreciate the recorded outcome for "CCc1ccc(-c2nnc(COc3ccc(-c4nc5cc(Cl)c(Cl)cc5[nH]4)cc3OC)o2)cc1" from this test.
Reply text: F

Inquiry: I'd appreciate the recorded outcome for "Cc1[nH]nc2c(=S)[nH]c(=O)[nH]c12" from this test.
Reply text: F

Inquiry: I'd appreciate the recorded outcome for "CCOC(=O)c1c(Cl)c2c(n1Cc1cccc(OC)c1)-c1oncc1CC2" from this test.
Reply text: F

Inquiry: I'd appreciate the recorded outcome for CC(C)=C1CCC(C)C/C1=N\N=C(N)N (centres undefined) from this test.
Reply text: F

Inquiry: I'd appreciate the recorded outcome for "COc1ccc(/C(=C/c2cc(OC)c(OC)cc2[N+](=O)[O-])C(=O)O)cc1" from this test.
Reply text: F

Inquiry: I'd appreciate the recorded outcome for "COc1ccc(-c2nnc(SC/C(=N\O)c3ccccc3)o2)cc1" from this test.
Reply text: F

Inquiry: I'd appreciate the recorded outcome for Cn1c(=O)c2[nH]c(C(O)c3ccc(Cl)cc3)nc2n(C)c1=O (centres undefined) from this test.
Reply text: F

Inquiry: I'd appreciate the recorded outcome for "COCCOC(=O)NC(=O)Nc1ccc(C(=O)c2ccc(Cl)cc2)cc1" from this test.
Reply text: F

Inquiry: I'd appreciate the recorded outcome for "Fc1ccc(-c2cc(C(Cl)Cl)no2)cc1" from this test.
Reply text: F

Inquiry: I'd appreciate the recorded outcome for "O=C(Nc1ccc(OS(=O)(=O)Cc2ccccc2)cc1)C12CC3CC(CC(C3)C1)C2" from this test.
Reply text: F

Inquiry: I'd appreciate the recorded outcome for "O=C(NCCc1nccs1)c1cnc2c(S)cccc2c1" from this test.
Reply text: F

Inquiry: I'd appreciate the recorded outcome for "C#CCNCCN1C(=O)c2ccc3c4c(ccc(c24)C1=O)C(=O)N(CCNCC#C)C3=O" from this test.
Reply text: T

Inquiry: I'd appreciate the recorded outcome for "CC(=O)/C(=C\c1ccc(Cl)cc1)c1ccccc1" from this test.
Reply text: F
